This collection of values is drawn from the supplement of paper PMC9170038.

Test system: MS2 coat protein
assay method text: apparent KD of MS2 coat protein; designed switch direction (-1 OFF switch, 1 ON switch): 1; higher = weaker reporter binding
run conditions: input ligand: none
Assign Y to entries whose apparent KD of MS2 coat protein meets or exceeds 0.05 µM; assign N to the rest.

| construct sequence | cat |
| --- | --- |
| GUUACAUGAGGAUCACCCAUGUAUGUGUGGGAGUAAGUGUCUUAGGAUAUCUAGUUUUUAAUUUAAGAGAAGGAAGAUUGUUGU [JMF's solution 52] (Eterna round: R96, puzzle: Same State NG 3) | Y |
| GAGUAGUUGAAAGGAUAUUGAUUGUUGUAGGAUCAAGAAGGUUCUAACAUGAGGAUCACCCAUGUAGGACUAUUCCUGUGUAUC [Parity 86 - Jieux - Same State NG 1] (Eterna round: R96, puzzle: Same State NG 1) | N |
| AGCCGAGACACAGGAUAUACAUGUUUACAUGAGGAUCACCCAUGUAGCAACACGUGGUAGUGAUUGUAGAAGGGUGCUCGGCGC [Omei SS(NG)2 Cv12] (Eterna round: R96, puzzle: Same State NG 2) | N |
| GCUAGAAAUAAAGCCAACAUGAGGAUCACCCAUGUAUGUUGGUAGGAUAUCGUAUGCAAAGCAUACGAGAAGGGCCAAACUAGC [Mat - Same State NG 3 - JL Mod - D21] (Eterna round: R96, puzzle: Same State NG 3) | Y |
| GGUAGGUUACUACCAACACAUGAGGAUCACCCAUGUUAUGGGAAGGAUAUGGUACCUAUUUGGUACCAGAAGGUCCAGUUAAUU [Fiskers NG3ss - 16] (Eterna round: R96, puzzle: Same State NG 3) | Y |
| AUUAUUUAUGCAGGAUAUGAUUAACAUGAGGAUCACCCAUGUGGUGUUGUGAGUAAGGAGAGUGAUCAGAAGGGCAUUGUUUUU [JMF's solution 46] (Eterna round: R96, puzzle: Same State NG 2) | Y |
| CAGCGCUGUUGAGAGGAUAUGCGGUGAUGGACAUGAGGAUCACCCAUGUUAGCGACAGCAUUACGGCAGAAGGCUUCACAGCUGC [Soteed Omei mod 17] (Eterna round: R96, puzzle: Same State 2) | N |
| AUCAUUUAUGCAGGAUAUGAUUAACAUGAGGAUCACCCAUGUGGUGUUGUGAGUAAGGAGAGUGAUCAGAAGGGCAUUUUUUUU [JMF's solution 72] (Eterna round: R96, puzzle: Same State NG 2) | Y |
| AAACUCGUUGAAGGAUAUCCGGCAGCUAACAAACCGUAACAUGAGGAUCACCCAUGUGUUAGAAAGGAGAAGGUCAGUGACCGG [Eternabot solution 34] (Eterna round: R96, puzzle: Same State NG 2) | N |
